System: DPX2 cells
Conditions: 6.25 μM, 24 h
Form field: DPX2 Viability @ 6.25 μM (one value per entry).
Quick reminder: number only, in %, skip the unit.

Solved entries (count: 2):
- Compound: "CO[C@H]1/C=C/O[C@@]2(C)Oc3c(C)c(O)c4c(=O)c(c5oc6cc(N7CCC(CC(=O)O)CC7)cc(C)c6nc-5c4c3C2=O)NC(=O)/C(C)=C\\C=C\\[C@H](C)[C@H](O)[C@@H](C)[C@@H](O)[C@@H](C)[C@H](OC(C)=O)[C@@H]1C [Compound 29g]"
  Experimental system: "DPX2 cells"
  DPX2 Viability @ 6.25 μM (%): 100
- Compound: "CCC(=O)N1CCN(c2cc(OCc3ccc(CN4CCOCC4)cc3)c3nc4c5c6c7c(C)c(O)c5c(=O)c(c-4oc3c2)NC(=O)/C(C)=C\\C=C\\[C@H](C)[C@H](O)[C@@H](C)[C@@H](O)[C@@H](C)[C@H](OC(C)=O)[C@H](C)[C@@H](OC)/C=C/O[C@@](C)(O7)C6=O)CC1 [Compound 17g]"
  Experimental system: "DPX2 cells"
  DPX2 Viability @ 6.25 μM (%): 117

What value of DPX2 Viability @ 6.25 μM has been reported for the following compound? CO[C@H]1/C=C/O[C@@]2(C)Oc3c(C)c(O)c4c(=O)c(c5oc6cc(N7CCN(C(=O)c8ccc9occc9c8)CC7)cc(OCc7ccc(CN8CCOCC8)cc7)c6nc-5c4c3C2=O)NC(=O)/C(C)=C\C=C\[C@H](C)[C@H](O)[C@@H](C)[C@@H](O)[C@@H](C)[C@H](OC(C)=O)[C@@H]1C [Compound 17s] 102
